Catalogue of TA97 −S9 readings, one per entry.
System: TA97
protocol_details: Ames test, strain TA97
Assay type: cell-based
condition_notes: 0.5 μg/dish

{"columns": ["structure_smiles_string", "TA97 −S9"],
 "data": [
  ["O=c1c2ccc(Cl)cc2[se]n1-c1ccncc1", 47.33],
  ["C/C(=N\\O)c1ccc(-n2[se]c3ccccc3c2=O)cc1", 62.67],
  ["O=c1c2cc(Cl)ccc2[se]n1-c1ccccn1", 54.33],
  ["O=c1c2cc(F)ccc2[se]n1-c1ccccn1", 60.00],
  ["O=c1c2cc(F)ccc2[se]n1-c1cccnc1", 59.33]
]}

----------
System: TA98
protocol_details: Ames test, strain TA98
Format: cell-based
condition_notes: 5 μg/dish
Checkbox rule: TA98 −S9 lower than 80 = criterion met; TA98 −S9 not lower than 80 = criterion not met.

{"columns": ["structure_smiles_string", "class_assignment"],
 "data": [
  ["O=c1c2ccc(Cl)cc2[se]n1-c1ccncc1", "criterion not met"],
  ["C/C(=N\\O)c1ccc(-n2[se]c3ccccc3c2=O)cc1", "criterion met"],
  ["O=c1c2cc(F)ccc2[se]n1-c1cccnc1", "criterion met"],
  ["O=c1c2cc(F)ccc2[se]n1-c1ccccn1", "criterion not met"],
  ["O=c1c2cc(Cl)ccc2[se]n1-c1ccccn1", "criterion met"]
]}

----------
// reported Inhibitory rate of inward INa—Ca (%) per item
system_under_test: Na^+/Ca^2+ exchanger (Cavia porcellus, UniProt P48766)
Construct: endogenous in cells; host or cells: freshly isolated guinea pig ventricular myocytes
protocol_details: Na^+/Ca^2+ exchange current (INa—Ca), whole-cell patch clamp, intracellular Na^+ overload cell model
Format: cell-based, guinea pig
Design: concentration or dose not given beside the values
condition_notes: screening of 22 candidate compounds

{"columns": ["compound", "Inhibitory rate of inward INa—Ca (%)"],
 "data": [
  ["CCCCC1OC(=O)c2cccc(-n3[se]c4ccccc4c3=O)c21 (stereo not drawn)", 15],
  ["O=c1c2ccc(Cl)cc2[se]n1-c1ccncc1", 28],
  ["O=c1c2ccccc2[se]n1Cc1ccco1", 15]
]}

----------
Property: TA97 −S9; scope: individual compounds
Tested on: TA97
protocol_details: Ames test, strain TA97
Assay type: cell-based
condition_notes: 50 μg/dish

{"columns": ["compound", "TA97 −S9"],
 "data": [
  ["O=c1c2cc(F)ccc2[se]n1-c1ccccn1 [IMM-127]", "60.33 ± 3.77"],
  ["O=c1c2ccc(Cl)cc2[se]n1-c1ccncc1 [IMM-313]", 0],
  ["O=c1c2cc(Cl)ccc2[se]n1-c1ccccn1 [IMM-004]", "47.00 ± 5.72"],
  ["O=c1c2cc(F)ccc2[se]n1-c1cccnc1 [IMM-128]", "59.00 ± 3.56"]
]}

----------
system_under_test: Na^+/Ca^2+ exchanger (Cavia porcellus, UniProt P48766)
Construct: endogenous in cells; host or cells: freshly isolated guinea pig ventricular myocytes
protocol_details: Na^+/Ca^2+ exchange current (INa—Ca), whole-cell patch clamp, intracellular Na^+ overload cell model
Type: cell-based, guinea pig
condition_notes: screening of 22 candidate compounds
Marks after values point to notes of the source that are not given here.
Listed molecules paired with reported Inhibitory rate of outward INa—Ca (%)

{"columns": ["molecule", "Inhibitory rate of outward INa—Ca (%)"],
 "data": [
  ["O=c1c2cc(F)ccc2[se]n1-c1cccnc1 [IMM-128]", "44* %"],
  ["O=c1c2cc(F)ccc2[se]n1-c1ccccn1 [IMM-127]", "43* %"],
  ["O=c1c2ccc(Cl)cc2[se]n1-c1ccncc1 [IMM-313]", "50* %"],
  ["C/C(=N\\O)c1ccc(-n2[se]c3ccccc3c2=O)cc1 [IMM-065]", "55* %"],
  ["O=c1c2ccccc2[se]n1/C=C/C1N=CCN1 (centres unmarked) [IMM-002]", "32* %"],
  ["O=c1c2cc(F)ccc2[se]n1-c1ccncc1 [IMM-129]", "59* %"],
  ["O=c1c2cc(Cl)ccc2[se]n1-c1ccncc1 [IMM-132]", "44* %"],
  ["O=c1c2cc(Cl)ccc2[se]n1-c1ccccn1 [IMM-004]", "52* %"]
]}
